Entry source: patent US20060154243A1

- Test system: control serum Blood-bank (commercial negative donor pooled serum)
- Assay type: binding, human
QUANTITY_NAME: Control serum Blood-bank linear peptides
# answer = number (no unit)

For orientation, consider the following solved cases.
[[record]]
sequence_string = "KPLLAPHHVVAVIQE"
reading = 0.5

[[record]]
sequence_string = "LFLVLIMLIIFWFSL"
reading = 0.8


Lookup: Need Control serum Blood-bank linear peptides, item EAAVKPLLAPHHVVA
Found: 0.6

Lookup: Need Control serum Blood-bank linear peptides, item HCQKASTQREAEAAV
Found: 0.5

Lookup: Need Control serum Blood-bank linear peptides, item EWLAEVVKLPSRYCC
Found: 0.7

Lookup: Need Control serum Blood-bank linear peptides, item AVGEILLLEWLAEVV
Found: 0.5

Lookup: Need Control serum Blood-bank linear peptides, item LIDFYLCFLAFLLFL
Found: 0.7

Lookup: Need Control serum Blood-bank linear peptides, item YNFLKEQHCQKASTQ
Found: 0.5

Lookup: Need Control serum Blood-bank linear peptides, item IQLLAAVGEILLLEW
Found: 0.5

----------
- System: control serum Blood-bank (commercial negative donor pooled serum)
- Type: binding, human
# key: entry, value: Control Serum Blood-Bank Looped peptides
# answer = number (no unit)

[[record]]
sequence_string = "LVLIMLIIFWFSLEI"
reading = 0.7

[[record]]
sequence_string = "LLAPHHVVAVIQEIQ"
reading = 0.8

[[record]]
sequence_string = "LIMLIIFWFSLEIQD"
reading = 0.7

[[record]]
sequence_string = "LAPHHVVAVIQEIQL"
reading = 0.5

[[record]]
sequence_string = "WFSLEIQDLEEPCTK"
reading = 0.7


Shifting focus to the sequence that follows.
Lookup: Need Control Serum Blood-Bank Looped peptides, item EAEAAVKPLLAPHHV
Found: 0.7

----------
# key: entry, value: Binding of serum SARS-yellow to linear peptides of Orf14 of SARS-CoV TOR2
- Tested on: serum SARS-yellow
- Type: binding, human

For orientation, consider the following solved cases.
[[record]]
sequence_string = "EQHCQKASTQREAEA"
tgt = "serum SARS-yellow"
reading = 0.4

[[record]]
sequence_string = "LKEQHCQKASTQREA"
tgt = "serum SARS-yellow"
reading = 0.3

[[record]]
sequence_string = "QEIQLLAAVGEILLL"
tgt = "serum SARS-yellow"
reading = 0.5


Lookup: // fetch serum SARS-yellow Binding of serum SARS-yellow to linear peptides of Orf14 of SARS-CoV TOR2 for KPLLAPHHVVAVIQE
Found: 0.4

Lookup: // fetch serum SARS-yellow Binding of serum SARS-yellow to linear peptides of Orf14 of SARS-CoV TOR2 for CQKASTQREAEAAVK
Found: 0.1

Lookup: // fetch serum SARS-yellow Binding of serum SARS-yellow to linear peptides of Orf14 of SARS-CoV TOR2 for KASTQREAEAAVKPL
Found: 0.1

Lookup: // fetch serum SARS-yellow Binding of serum SARS-yellow to linear peptides of Orf14 of SARS-CoV TOR2 for VVAVIQEIQLLAAVG
Found: 0.4

Lookup: // fetch serum SARS-yellow Binding of serum SARS-yellow to linear peptides of Orf14 of SARS-CoV TOR2 for HCQKASTQREAEAAV
Found: 0.6

Lookup: // fetch serum SARS-yellow Binding of serum SARS-yellow to linear peptides of Orf14 of SARS-CoV TOR2 for REAEAAVKPLLAPHH
Found: 0.2

----------
# key: entry, value: Binding of serum 1b to linear peptides of Orf14 of SARS-CoV TOR2
- System: serum 1b (individual 1, late serum)
- Assay type: binding, human
# answer = number (no unit)

For orientation, consider the following solved cases.
[[record]]
sequence_string = "AEAAVKPLLAPHHVV"
reading = 0.5

[[record]]
sequence_string = "ILLLEWLAEVVKLPS"
reading = 0.4

[[record]]
sequence_string = "LLEWLAEVVKLPSRY"
reading = 0.4

[[record]]
sequence_string = "AVKPLLAPHHVVAVI"
reading = 0.4

[[record]]
sequence_string = "MLPPCYNFLKEQHCQ"
reading = 0.4

[[record]]
sequence_string = "AVIQEIQLLAAVGEI"
reading = 2.4

[[record]]
sequence_string = "HCQKASTQREAEAAV"
reading = 0.5

[[record]]
sequence_string = "ASTQREAEAAVKPLL"
reading = 0.3


Shifting focus to the sequence that follows.
Lookup: Need Binding of serum 1b to linear peptides of Orf14 of SARS-CoV TOR2, item QLLAAVGEILLLEWL
Found: 0.4

----------
- Tested on: serum 37 (individual 37)
- Format: binding, human
Mark Y only for Binding of serum 37 to linear peptides of Orf14 of SARS-CoV TOR2 values smaller than 0.6; exact matches and larger values are N.

Some solved entries appear below for comparison.
[[record]]
sequence_string = "REAEAAVKPLLAPHH"
group = "Y"

[[record]]
sequence_string = "AVKPLLAPHHVVAVI"
group = "N"

[[record]]
sequence_string = "CQKASTQREAEAAVK"
group = "Y"

[[record]]
sequence_string = "LEWLAEVVKLPSRYC"
group = "N"


Lookup: # strict comparison: is reported Binding of serum 37 to linear peptides of Orf14 of SARS-CoV TOR2 < 0.6? input = EAEAAVKPLLAPHHV
Found: Y

Lookup: # strict comparison: is reported Binding of serum 37 to linear peptides of Orf14 of SARS-CoV TOR2 < 0.6? input = EQHCQKASTQREAEA
Found: Y

Lookup: # strict comparison: is reported Binding of serum 37 to linear peptides of Orf14 of SARS-CoV TOR2 < 0.6? input = FLKEQHCQKASTQRE
Found: Y

----------
- Test system: serum 1b (individual 1, late serum)
- Type: binding, human
Class true (1): Binding of serum 1b to linear peptides of Orf14 of SARS-CoV TOR2 at least 0.4. Class false (0): Binding of serum 1b to linear peptides of Orf14 of SARS-CoV TOR2 below 0.4.

[[record]]
sequence_string = "LEWLAEVVKLPSRYC"
group = "false (0)"

[[record]]
sequence_string = "LKEQHCQKASTQREA"
group = "false (0)"

[[record]]
sequence_string = "EILLLEWLAEVVKLP"
group = "true (1)"

[[record]]
sequence_string = "FLKEQHCQKASTQRE"
group = "false (0)"

[[record]]
sequence_string = "KASTQREAEAAVKPL"
group = "false (0)"


Lookup: Item EAAVKPLLAPHHVVA with Binding of serum 1b to linear peptides of Orf14 of SARS-CoV TOR2 of 0.4 or above?
Found: true (1)

Lookup: Item NFLKEQHCQKASTQR with Binding of serum 1b to linear peptides of Orf14 of SARS-CoV TOR2 of 0.4 or above?
Found: false (0)

Lookup: Item CYNFLKEQHCQKAST with Binding of serum 1b to linear peptides of Orf14 of SARS-CoV TOR2 of 0.4 or above?
Found: false (0)

Lookup: Item QREAEAAVKPLLAPH with Binding of serum 1b to linear peptides of Orf14 of SARS-CoV TOR2 of 0.4 or above?
Found: false (0)

Lookup: Item LPPCYNFLKEQHCQK with Binding of serum 1b to linear peptides of Orf14 of SARS-CoV TOR2 of 0.4 or above?
Found: false (0)

Lookup: Item VKPLLAPHHVVAVIQ with Binding of serum 1b to linear peptides of Orf14 of SARS-CoV TOR2 of 0.4 or above?
Found: true (1)

Lookup: Item AAVKPLLAPHHVVAV with Binding of serum 1b to linear peptides of Orf14 of SARS-CoV TOR2 of 0.4 or above?
Found: true (1)

Lookup: Item EIQLLAAVGEILLLE with Binding of serum 1b to linear peptides of Orf14 of SARS-CoV TOR2 of 0.4 or above?
Found: true (1)

----------
# key: entry, value: Control serum LUMC linear peptides
- Tested on: control serum LUMC (pooled serum of ten healthy hospital workers)
- Assay type: binding, human
# answer = number (no unit)

Lookup: Need Control serum LUMC linear peptides, item EQHCQKASTQREAEA
Found: 0.4

Lookup: Need Control serum LUMC linear peptides, item MLPPCYNFLKEQHCQ
Found: 0.5

Lookup: Need Control serum LUMC linear peptides, item CYNFLKEQHCQKAST
Found: 0.3

----------
# key: entry, value: Control serum LUMC linear peptides
- System: control serum LUMC (pooled serum of ten healthy hospital workers)
- Type: binding, human
# answer = number (no unit)

Lookup: Need Control serum LUMC linear peptides, item NFLKEQHCQKASTQR
Found: 0.7

Lookup: Need Control serum LUMC linear peptides, item HHVVAVIQEIQLLAA
Found: 0.4

Lookup: Need Control serum LUMC linear peptides, item QREAEAAVKPLLAPH
Found: 0.4

Lookup: Need Control serum LUMC linear peptides, item MNELTLIDFYLCFLA
Found: 1.1

Lookup: Need Control serum LUMC linear peptides, item FLAFLLFLVLIMLII
Found: 0.5

Lookup: Need Control serum LUMC linear peptides, item LIDFYLCFLAFLLFL
Found: 0.4

Lookup: Need Control serum LUMC linear peptides, item FLKEQHCQKASTQRE
Found: 0.3

Lookup: Need Control serum LUMC linear peptides, item FYLCFLAFLLFLVLI
Found: 0.4

Lookup: Need Control serum LUMC linear peptides, item LAAVGEILLLEWLAE
Found: 0.6
